# Assayed system: C6orf105
# Test summary: pooled miR-30 sensor sort-seq; sequence = guide strand; further: reference of the scale not given here
# Experimental parameters: shRNA
Classification field: enter YES for sensor-assay potency score (higher = more potent) values not below -0.5, NO for values below it.

TATATTTCCACCTTGCACCATT ... NO

Pending sequence:
Asked: Is sensor-assay potency score (higher = more potent) at least -0.5? Consider "TTGCATGATTCAGCCACACGGG"
Given back: NO

---

# Assayed system: MAF
# Test summary: pooled miR-30 sensor sort-seq; sequence = guide strand
# Experimental parameters: shRNA
Exercise: state measured sensor-assay potency score (higher = more potent) for each of the sequences provided.
Answers are plain numbers.

Past entries and their recorded results:
TCCCTCTCGCGCACCAGCCTGG ... -1.61
AACTTCTCGTATTTCTCCTTGT ... -0.264
TTTCAGGGTCCGCCTCTTCTGC ... -1.55
TCATCCAGTAGTAGTCTTCCAG ... -0.918

Asked: Identify measured sensor-assay potency score (higher = more potent) obtained with MAF for "TTCAGCTCGCGCACAGACATGG" .
Given back: -0.726

---

# Assayed system: AP3B1
# Test summary: pooled miR-30 sensor sort-seq; sequence = guide strand
# Experimental parameters: shRNA
Exercise: state measured sensor-assay potency score (higher = more potent) for each of the sequences provided.

TAAACATATACCAACTTCTTGA ... -0.605
TACTTCTACATTTCGAACTGAT ... 0.236
TAAACCTTCAAGATCAGCCATC ... -0.757
TTGCTTTAGATCTTCATTCTTC ... 0.267
TTTGAATTGACATAGTTGCTAT ... -0.399

// each listed sequence needs a value for sensor-assay potency score (higher = more potent)
1. TACATTCGGAACAATAAGCTGC
2. TTATGAATCAGATCTATTCTGT
3. TTTCTTTGAATTGACATAGTTG
4. TAGAAGTGAAACATCTTTGGTA

Given back:
1. 0.383
2. 0.754
3. -0.577
4. 0.763

---

# Assayed system: DNTTIP1
# Test summary: pooled miR-30 sensor sort-seq; sequence = guide strand
# Experimental parameters: shRNA
Classification field: enter rule met for sensor-assay potency score (higher = more potent) values not below -0.2, rule not met for values below it.

TTTATCATTATGTTCCAAGGGT ... rule met

Asked: Is sensor-assay potency score (higher = more potent) at least -0.2? Consider "TTCCTCTAGCTTCAGATCCAGG"
Given back: rule not met

Asked: Is sensor-assay potency score (higher = more potent) at least -0.2? Consider "TTGATGTAGATTCTTCCTCTGG"
Given back: rule not met

Asked: Is sensor-assay potency score (higher = more potent) at least -0.2? Consider "TACTTGTTGAAGACAGTCTGGA"
Given back: rule met

Asked: Is sensor-assay potency score (higher = more potent) at least -0.2? Consider "TTGGTTTCCATACCATGCCGGC"
Given back: rule not met

Asked: Is sensor-assay potency score (higher = more potent) at least -0.2? Consider "TTTGGTTTCCATACCATGCCGG"
Given back: rule not met

Asked: Is sensor-assay potency score (higher = more potent) at least -0.2? Consider "TGAAACTTGTTGTCATCTGTGA"
Given back: rule met

Asked: Is sensor-assay potency score (higher = more potent) at least -0.2? Consider "TATACTTTCTCATCTTCTCCAC"
Given back: rule met

Asked: Is sensor-assay potency score (higher = more potent) at least -0.2? Consider "TGAGTCACTACAAACTCGCTCA"
Given back: rule not met
